Hello, the source for this data is PubChem BioAssay (NCATS), in case you need it.

# procedure details: AP1 Signaling Pathway (AID 357);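 further: ME-180 reporter cells stimulated with EGF at its EC50 level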
# assay conditions: ME-180 (cervical carcinoma) AP-1-bla reporter, EGF-induced, beta-lactamase ratio, 5 h; at 7.69 µM (top of the series) unless noted
Inconclusive results are not listed. Activity calls are given as the source filed them. The call rests on the fitted dose curve; in most records, active means well fitted curve in either direction with a large enough effect (not every such curve was filed as active); inconclusive means small, poorly fitted or top-dose-only effect, or another doubt; inactive means flat fitted curve, though single readings scatter.
Outcomes you can answer with include only these: TRUE = active, FALSE = inactive

Examples with answers:
{"columns": ["smiles notation", "cat"],
 "data": [
  ["c1ccc(Nc2cc(-c3ccoc3)ncn2)cc1", "FALSE"],
  ["COc1ccc(-n2c(=O)c(-c3cccs3)nc3cnc(N4CCOCC4)nc32)cc1", "FALSE"],
  ["COCCNc1cc(-c2ccccc2CN(C)C)ncn1", "FALSE"],
  ["COc1ccc(NC(=O)N2CC[C@@]3(CCCN(C(=O)c4cccn4C)C3)C2)cc1", "FALSE"]
]}

Could you now look at the following compound, please?
Query: How was COc1ccccc1CCn1c(=O)c(-c2cccc(F)c2)nc2cncnc21 classified in this test?
Result: FALSE

###

# procedure details: SDT Cancer Cell Toxicity qHTS against the NCATS CANVASS Library (AID 1347365); further: nearly all actives have a fitted effect of over 60% in size
# assay conditions: SDT dog glioma viability, ATP luminescence, 72 h; series mostly up to 46.1 µM
Results filed as inconclusive are left out. The source made the active and inactive calls. Calls come from the whole dose curve; as a rule, active = well fitted cell-killing curve with a large enough effect; inconclusive = small, poorly fitted or top-dose-only effect; inactive = flat fitted curve, though single readings scatter.
Outcomes you can answer with include only these: yes (1) (active), no (0) (inactive)

Examples with answers:
{"columns": ["smiles notation", "cat"],
 "data": [
  ["CCC(=O)N[C@@H](C[C@H](C)C(Cl)(Cl)Cl)C(=O)N1C(=O)C=C(OC)[C@@H]1C[C@H](C)CCl", "no (0)"],
  ["CC(=O)O[C@H]1c2ccccc2-c2c3c(cc4c2[C@@H]1N(C(C)=O)CC4)OCO3", "no (0)"]
]}

Query: How was C/C(=C\[C@H](C)C(=O)C[C@H](O)CC1CC(=O)NC(=O)C1)[C@@H]1OC(=O)CCCC/C=C/C[C@@H](O)[C@@H]1C classified in this test?
Result: yes (1)

Query: How was CC[C@@H](c1cc(OC)c(OC)cc1OC)[C@H](C)[C@@H](/C(C)=C/c1cc(OC)c(OC)cc1OC)c1cc(OC)c(OC)cc1OC classified in this test?
Result: no (0)

###

# procedure details: qHTS drug screen for cell cycle checkpoint inhibitors in PARPi-resistant BRCA-mutant ovarian cancer cell lines. (AID 1963452)
# assay conditions: PEO1/OlaR viability, CellTiter-Glo luminescence, 96 h; measured here: PEO1 parental Z-AUC; stronger effect = lower value
Answer each item with its documented Z-AUC.
Give bare numbers.

# example entries with known answers
{"columns": ["molecule", "Z-AUC"],
 "data": [
  ["O=C(NCc1ccccc1)[C@H](Cc1ccccc1)NC(=O)[C@H]1O[C@@H]1C(=O)NCCc1ccc(O)cc1", 0.636],
  ["Cc1c(-c2ccc(-c3ccccc3F)cc2)nc2ccc(F)cc2c1C(=O)O", -1.54],
  ["CCN(CC)CCNc1ccc(C)c2sc3ccccc3c(=O)c12", -0.605]
]}

Provide each entry's Z-AUC from the list below.
1. NC(CC1c2ccccc2Oc2ccccc21)(C(=O)O)C1CC1C(=O)O (centres undefined)
2. O=C(NCc1ccc(S(=O)(=O)c2cccc(C(F)(F)F)c2)cc1)c1cnc2[nH]ncc2c1
3. CC(C)(O)CC[C@@H](O)[C@](C)(O)[C@H]1CC[C@@]2(O)C3=CC(=O)[C@@H]4C[C@@H](O)[C@@H](O)C[C@]4(C)[C@H]3CC[C@]12C

Result:
[0.493, -2.73, 0.684]

Provide each entry's Z-AUC from the list below.
1. CN1CCN(c2ccc(Nc3ncc4cc(C#N)c(=O)n(C5CCCC5)c4n3)cc2)CC1
2. CC(=O)c1cc2c(o1)C(=O)c1ccccc1C2=O
3. O=c1oc2c(C3OCCCO3)c(O)ccc2c2c1CNCC2

Result:
[0.47, -1.52, -0.774]
